System: Pr. morganii A15153
Test Description: M.I.C. by tube dilution
Format: cell-based
Cond: Morganella morganii, at 10^-^4 dilution, overnight 37° C., read-out: M.I.C.
For each entry below, report its MIC value.

Param item = Cc1cnc(C(=O)SCC2=C(C(=O)O)N3C(=O)C(NC(=O)[C@H](N)c4ccccc4)[C@H]3SC2)s1 (stereo partly shown) ; retrieve measured MIC.
63 µg/mL

Param item = Cc1nc(C(=O)SCC2=C(C(=O)O)N3C(=O)C(NC(=O)[C@H](N)c4ccccc4)[C@H]3SC2)cs1 (stereo partly shown) ; retrieve measured MIC.
32 µg/mL

Param item = N[C@@H](C(=O)NC1C(=O)N2C(C(=O)O)=C(CSC(=O)c3nccs3)CS[C@H]12)c1ccccc1 (stereo partly shown) ; retrieve measured MIC.
63 µg/mL

Param item = N[C@@H](C(=O)NC1C(=O)N2C(C(=O)O)=C(CSC(=O)c3cscn3)CS[C@H]12)c1ccccc1 (stereo partly shown) ; retrieve measured MIC.
32 µg/mL

----------
Test Description: Blood levels in the mouse after oral administration
Format: in vivo
Cond: blood, 100 mg/kg; mouse, oral, 100 mgm./kg., 2 hrs. after administration; read-out: Blood Level
Quantity Kind: concentration at 2 h (ng/mL)
Use ng/mL as the unit, but write only the number.

Param item = N[C@@H](C(=O)NC1C(=O)N2C(C(=O)O)=C(CSC(=O)c3cscn3)CS[C@H]12)c1ccccc1 (stereo partly drawn) ; retrieve measured concentration at 2 h.
4400

Param item = N[C@@H](C(=O)NC1C(=O)N2C(C(=O)O)=C(CSC(=O)c3cncs3)CS[C@H]12)c1ccccc1 (stereo partly drawn) ; retrieve measured concentration at 2 h.
9700

Param item = Cc1nc(C(=O)SCC2=C(C(=O)O)N3C(=O)C(NC(=O)[C@H](N)c4ccccc4)[C@H]3SC2)cs1 (stereo partly drawn) ; retrieve measured concentration at 2 h.
1300
